Molecular target: T1, HTRA4, P83105
T1 sequence (P83105 378-476, limits assumed, looked up): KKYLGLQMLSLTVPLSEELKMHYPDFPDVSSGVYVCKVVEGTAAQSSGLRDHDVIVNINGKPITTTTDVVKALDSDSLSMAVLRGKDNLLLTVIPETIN
Assay: holdup assay
Design: key: below the threshold = too weak to quantify, mostly under pKd 3.1 to 4
Conditions: plain residues with an end cap or a label only (N-terminal biotin on a linker: ado-ado)

# Binder, pKd
data = [
    ("GVHSNDHSVV [LPAR1, Q92633]", "below the threshold"),
    ("LLQEEWETVM [PTH1R, Q03431]", "below the threshold"),
    ("DSEEELPTRL [GRK6, P43250]", 3.92),
    ("EKPIDSETKM [SLC1A3, P43003]", "below the threshold"),
]

Provenance of the data: paper PMC9482650
